# System: OVCAR-5
# assay protocol: NCI tumour cell line growth inhibition, 48 h
Activity calls are given as the source filed them. Cut-off read from the data, not from the text of the source: active = GI50 up to about 1.1 µM and inactive = higher.
Reported GI50 values for the following molecules.
quantity name: GI50

{"molecule": "COc1ccc([N+](=O)[O-])c2c(NCC(O)CO)ccnc12 (stereo unspecified)", "result": "> 100 µM (inactive)"}
{"molecule": "Cc1cn(CC2(CO)CCC2)c(=O)[nH]c1=O", "result": "> 100 µM (inactive)"}
{"molecule": "CC1(C)CCCCCCCCCC(C)(CCCCCCCCCCCCO)C1=O (stereo unspecified)", "result": "18.5 µM (inactive)"}
{"molecule": "CN(C)CCn1c(=O)c2ccc(NCCNCCO)c3c(=O)c4cc(O)ccc4n(c1=O)c23", "result": "1.79 µM (inactive)"}
{"molecule": "COc1ccc(OC)c(NC(=O)CCC/C(CC(=O)c2ccc(O)c(OC)c2)=N\\Nc2ccc([N+](=O)[O-])cc2)c1", "result": "> 100 µM (inactive)"}
{"molecule": "CCOC(=O)/C=C(\\C)c1ccc(Cl)cc1", "result": "> 100 µM (inactive)"}

---

# Test system: UO-31
# assay protocol: NCI tumour cell line growth inhibition, 48 h
Calls of active or inactive are those of the source. Cut-off read from the data, not from the text of the source: active = GI50 up to about 1.1 µM and inactive = higher.

{"compound": "Cc1cc(Nc2ccc(NS(C)(=O)=O)cc2)c2c(ccc3[nH]ccc32)n1", "system tested": "UO-31", "GI50": "> 100 µM (inactive)"}
{"compound": "CC1=NN(C(=O)Cc2ccccc2)C(=O)/C1=C\\c1ccccc1O", "system tested": "UO-31", "GI50": "> 100 µM (inactive)"}
{"compound": "COc1ccc(/N=C/N(C)C)c(C)c1", "system tested": "UO-31", "GI50": "26.1 µM (inactive)"}
{"compound": "O=C1CNc2cc(N3CCCCC3)ccc2N1", "system tested": "UO-31", "GI50": "> 100 µM (inactive)"}
{"compound": "CC1(C)O[C@@H](C[C@]2(C#N)C[C@H](CCl)OC(C)(C)O2)C[C@@H](C#N)O1", "system tested": "UO-31", "GI50": "> 100 µM (inactive)"}
{"compound": "CCC(c1ccccc1)c1cc(C(C)(C)C)cc(C(C)(C)C)c1O (stereo unspecified)", "system tested": "UO-31", "GI50": "18.4 µM (inactive)"}

---

# System: SNB-75
# assay protocol: NCI tumour cell line growth inhibition, 48 h
The source made the active and inactive calls. Cut-off read from the data, not from the text of the source: active = GI50 up to about 1.1 µM and inactive = higher.
Outcome codes: true (1) for active, false (0) for inactive

{"molecule": "CC(=O)O[C@H]1CC[C@@]2(C)C(=CC[C@@H]3C2CC[C@]2(C)Nc4[nH]ncc4CC32)C1 (stereo partly drawn)", "category label": "false (0)"}
{"molecule": "CNc1ccc2c(c1)Cc1ccccc1-2", "category label": "false (0)"}
{"molecule": "Cn1c(=O)nc2n(-c3ccc(F)c(F)c3)c3ccccc3nc-2c1=O", "category label": "false (0)"}
{"molecule": "CC(=O)/N=C1\\NC(=O)/C(=C/c2ccc(/C=C3/C(=O)N/C(=N\\C(C)=O)N3C)cc2)N1C", "category label": "false (0)"}
{"molecule": "O=C(c1ccc([N+](=O)[O-])cc1)N1CCCC1", "category label": "false (0)"}
{"molecule": "CN1C(=O)c2ccccc2C(O)(c2ccccc2)C1(O)c1ccccc1 (stereo not drawn)", "category label": "false (0)"}
{"molecule": "C/C(=C\\c1csc(C)n1)[C@@H]1C[C@@H]2O[C@@H]2CCC[C@H](C)[C@H](O)[C@@H](C)C(=O)C(C)(C)[C@@H](O)CC(=O)O1.C/C(=C\\c1csc(C)n1)[C@@H]1C[C@@H]2O[C@]2(C)CCC[C@H](C)[C@H](O)[C@@H](C)C(=O)C(C)(C)[C@@H](O)CC(=O)O1", "category label": "true (1)"}
{"molecule": "CCOc1ccccc1N1C(=O)C(=O)C(c2nc3ccccc3s2)C(=O)C1=O", "category label": "false (0)"}
